Measurement Description: Volume of distribution at steady state in Sprague-Dawley rat at 2 mg/kg, iv by LC-MS/MS analysis
Format: ADME, organism-based
Condition Context: in vivo, read-out: Vdss
Endpoint: Vd

molecule="COc1cc(N2CCN(C(=O)CCOCC#Cc3ccc4c(c3)C(=O)N(C3CCC(=O)NC3=O)C4=O)CC2)ccc1NC(=O)c1cccc(-c2ccn[nH]2)n1 (stereo unspecified)" endpoint=Vd result="0.584 L/kg"

###

Measurement Description: Tmax in Sprague-Dawley rat at 20 mg/kg, po by LC-MS/MS analysis
Type: ADME, organism-based
Condition Context: in vivo
Endpoint: Tmax (min)

compound="COc1cc(N2CCN(C(=O)CCOCC#Cc3ccc4c(c3)C(=O)N(C3CCC(=O)NC3=O)C4=O)CC2)ccc1NC(=O)c1cccc(-c2ccn[nH]2)n1 (stereo unspecified)" measurement_unit=min number=30

###

The following molecules are listed with their measured Activity values.
Tested System: Protein cereblon/Interleukin-1 receptor-associated kinase 4 (Mus musculus) (UniProt Q8C7D2+Q8R4K2)
Sequence (Q8C7D2 whole entry, looked up): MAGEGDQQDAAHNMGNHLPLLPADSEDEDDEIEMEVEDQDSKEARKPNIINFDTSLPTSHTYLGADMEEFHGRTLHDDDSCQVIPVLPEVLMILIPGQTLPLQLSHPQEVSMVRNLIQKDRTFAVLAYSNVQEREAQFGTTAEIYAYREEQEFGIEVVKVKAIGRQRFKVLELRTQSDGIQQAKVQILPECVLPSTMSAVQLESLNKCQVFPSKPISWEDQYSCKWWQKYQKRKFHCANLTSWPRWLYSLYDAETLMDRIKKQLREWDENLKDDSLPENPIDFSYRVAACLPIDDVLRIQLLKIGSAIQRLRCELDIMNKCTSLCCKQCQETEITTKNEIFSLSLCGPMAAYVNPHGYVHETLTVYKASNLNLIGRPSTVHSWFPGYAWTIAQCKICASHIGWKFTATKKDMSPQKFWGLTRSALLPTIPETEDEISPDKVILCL
Sequence (Q8R4K2 whole entry, looked up): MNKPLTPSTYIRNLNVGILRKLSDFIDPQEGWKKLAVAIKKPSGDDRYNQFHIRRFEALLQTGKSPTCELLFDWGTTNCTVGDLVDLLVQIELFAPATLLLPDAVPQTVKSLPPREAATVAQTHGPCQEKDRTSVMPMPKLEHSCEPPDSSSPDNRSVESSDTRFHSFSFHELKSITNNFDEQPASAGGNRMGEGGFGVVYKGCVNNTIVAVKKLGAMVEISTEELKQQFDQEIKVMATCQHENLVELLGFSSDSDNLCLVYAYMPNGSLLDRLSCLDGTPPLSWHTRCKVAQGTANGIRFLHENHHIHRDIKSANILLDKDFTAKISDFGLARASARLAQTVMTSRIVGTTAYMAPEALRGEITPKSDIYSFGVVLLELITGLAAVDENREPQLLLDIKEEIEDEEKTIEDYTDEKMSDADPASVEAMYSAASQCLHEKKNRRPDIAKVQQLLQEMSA
Measurement Description: PROTAC activity at IRAK4/CRBN in mouse BaF3 cells assessed as reduction in IRAK4 level at 100 nM incubated for 12 hrs by Western blot analysis relative to control
Format: cell-based
Parameters: scale not given: the % may be the effect or the level left
Endpoint: Activity

molecule="COc1cc(N2CCN(C(=O)CCOCC#Cc3ccc4c(c3)C(=O)N(C3CCC(=O)NC3=O)C4=O)CC2)ccc1NC(=O)c1cccc(-c2ccn[nH]2)n1 (stereo unspecified)" result=15%
molecule=COc1cc(N2CCOCC2)ccc1NC(=O)c1cccc(-c2ccn[nH]2)n1 result=100%
molecule="COc1cc(N2CCN(C(=O)CCCCCCCCCCCNc3cccc4c3C(=O)N(C3CCC(=O)NC3=O)C4=O)CC2)ccc1NC(=O)c1cccc(-c2ccn[nH]2)n1 (stereo unspecified)" result=32%
molecule="COc1cc(N2CCN(C(=O)C3CN(c4ccc5c(c4)C(=O)N(C4CCC(=O)NC4=O)C5=O)C3)CC2)ccc1NC(=O)c1cccc(-c2ccn[nH]2)n1 (stereo unspecified)" result=26%
molecule="COc1cc(N2CCN(C(=O)CCCCCNc3cccc4c3C(=O)N(C3CCC(=O)NC3=O)C4=O)CC2)ccc1NC(=O)c1cccc(-c2ccn[nH]2)n1 (stereo unspecified)" result=55%
molecule="COc1cc(N2CCN(CC(=O)NCCNc3cccc4c3C(=O)N(C3CCC(=O)NC3=O)C4=O)CC2)ccc1NC(=O)c1cccc(-c2ccn[nH]2)n1 (stereo unspecified)" result=63%

###

Measurement Description: Cmax in Sprague-Dawley rat at 20 mg/kg, po by LC-MS/MS analysis
Type: ADME, organism-based
Condition Context: in vivo
Endpoint: Cmax (ng/mL)

compound="COc1cc(N2CCN(C(=O)CCOCC#Cc3ccc4c(c3)C(=O)N(C3CCC(=O)NC3=O)C4=O)CC2)ccc1NC(=O)c1cccc(-c2ccn[nH]2)n1 (stereo unspecified)" number=440
